study-system: CaRvs167
experimental-details: SPOT peptide array binding signal intensity (averaged, normalized) (arbitrary units (background-subtracted, floor 0; scale differs between SH3 domains)); higher = stronger binding of the SH3 domain to the peptide
Could you label it Condition met if measured SPOT peptide array binding signal intensity is 200 or higher, and Condition not met otherwise?

binder | label-class
FVLRYYILIPHEQWD | Condition met
LKHGWKPLRPIKLIS | Condition not met
KWVRRPKLMTPLTFS | Condition not met
MARRRLPDRPPNGIG | Condition met
NTMKKRPAPPSLPSL | Condition not met
DGNEEKPLLPTRPNK | Condition met
RNNRPVPPPPPMRTT | Condition met

Provenance of the data: the supplement of paper PMC4466140
